FYI, the data here is from patent US8404670B2.

- assayed system: human histamine H3 receptor (Homo sapiens)
- measurement notes: H3 GTPγS assay (SPA method), histamine H3 in vitro assay
- condition info: GTPγ[35S] binding to membranes of cells expressing human H3; antagonist mode with R-γ-Me-Histamine at EC80 (30 nM); in one embodiment HCl salts tested; read-out: Potency (functional potency as indicated by IC50)
- Experimental: H3 GTPγS assay (SPA method) was performed at EuroScreen (Belgium, ES-392-C) using conventional methods. Briefly, cells expressing the human histamine H3 receptor were homogenized in 15 mM Tris-HCl pH 7.5, 2 mM MgCl2, 0.3 mM EDTA, and 1 mM EGTA. Membranes were washed twice in the above tris buffer, collected by centrifugation (40,000×g, 25 min), and re-suspended in 75 mM Tris-HCl pH 7.5, 12.5 mM MgCl2, 0.3 mM EDTA, 1 mM EGTA, and 250 mM sucrose. Membranes were frozen in liquid nitrogen until use. […]
pIC50: −log10 of the molar value.
property measured: pIC50

Lab note: each compound below needs its pIC50 filled in.
1. CC(=O)N1CCc2c(ccc3c2nc2n3CCN(C3CCC3)CC2)C1 [Compound 188]
2. CC(=O)Nc1ccc(-c2ccc3c(c2)nc2n3CCN(C(C)C3CCC3)CC2)cc1 (stereo not shown) [Compound 7]
3. c1cc2c(cc1C1CCCN(C3CCC3)C1)nc1n2CCN(C2CCC2)CC1 (stereo not shown) [Compound 128]
4. c1cnc(N2Cc3cc4nc5n(c4cc3C2)CCN(C2CCC2)CC5)nc1 [Compound 148]

Result block:
≥ 6.00
≥ 6.00
≥ 8.00
≥ 7.00

----------
Consider the following compounds; for each one, report its IC50.
- assayed system: human histamine H3 receptor (Homo sapiens, UniProt Q9Y5N1)
- Sequence (Q9Y5N1 whole entry): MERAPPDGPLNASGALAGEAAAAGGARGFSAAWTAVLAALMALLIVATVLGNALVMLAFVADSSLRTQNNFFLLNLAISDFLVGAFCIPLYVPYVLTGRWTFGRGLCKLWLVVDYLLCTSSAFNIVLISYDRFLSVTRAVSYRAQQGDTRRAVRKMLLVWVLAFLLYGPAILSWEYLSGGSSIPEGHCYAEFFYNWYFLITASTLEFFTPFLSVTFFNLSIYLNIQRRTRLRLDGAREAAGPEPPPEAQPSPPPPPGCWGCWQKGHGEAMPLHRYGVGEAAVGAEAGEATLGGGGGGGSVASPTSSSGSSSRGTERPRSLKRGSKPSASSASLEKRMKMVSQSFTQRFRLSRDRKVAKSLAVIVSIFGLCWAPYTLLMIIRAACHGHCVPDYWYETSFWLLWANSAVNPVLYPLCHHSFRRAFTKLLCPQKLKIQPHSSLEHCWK
- measurement notes: H3 GTPγS assay (SPA method), histamine H3 in vitro assay
- condition info: GTPγ[35S] binding to membranes of cells expressing human H3; antagonist mode with R-γ-Me-Histamine at EC80 (30 nM); in one embodiment HCl salts tested; read-out: Potency (functional potency as indicated by IC50)

Examples with answers:
>>> experimental_result("N#Cc1ccc(-c2ccc3c(c2)nc2n3CCN(C3CCOCC3)CC2)cc1")
"≤ 100 nM"
>>> experimental_result("CC(=O)N1CCN(c2ccc3c(c2)nc2n3CCN(C3CCC3)CC2)CC1")
"≤ 10 nM"

Lab note: each compound below needs its IC50 filled in.
1. O=C(C1CCC1)N1CCc2cc3c(cc2C1)nc1n3CCN(C2CCC2)CC1
2. COc1nccc(-c2ccc3c(c2)nc2n3CCN(C3CCC3)CC2)n1
3. O=C1CCc2cc(-c3ccc4c(c3)nc3n4CCN(C4CCC4)CC3)ccc2N1
4. FC1CCN(c2ccc3c(c2)nc2n3CCN(C3CCC3)CC2)C1 (stereo not drawn)

Result block:
≤ 100 nM
≤ 100 nM
≤ 10 nM
≤ 100 nM

----------
- assayed system: UniProt:Q9Y5N1
- measurement notes: H3 GTPγS assay (SPA method), histamine H3 in vitro assay
- condition info: GTPγ[35S] binding to membranes of cells expressing human H3; antagonist mode with R-γ-Me-Histamine at EC80 (30 nM); in one embodiment HCl salts tested; read-out: Potency (functional potency as indicated by IC50)
Consider the following molecules; for each one, report its IC50.

>>> experimental_result("c1c2c(cc3c1nc1n3CCN(C3CCC3)CC1)CN(CC1CC1)C2")
"≤ 0.01 µM"
>>> experimental_result("c1cc2ccc(-c3ccc4c(c3)nc3n4CCN(C4CCC4)CC3)nc2[nH]1")
"≤ 0.1 µM"
>>> experimental_result("c1cnc(-c2cnc3c(c2)nc2n3CCN(C3CCC3)CC2)cn1")
"≤ 1 µM"

Lab note: each molecule below needs its IC50 filled in.
1. CN1CCN(c2cncc(-c3ccc4c(c3)nc3n4CCN(C4CCC4)CC3)n2)CC1
2. c1ncn(-c2ccc3c(c2)nc2n3CCN(C3CCC3)CC2)n1
3. c1cnc(N2CCCC(c3ccc4c(c3)nc3n4CCN(C4CCC4)CC3)C2)nc1 (stereo not drawn)

Result block:
1: ≤ 0.01 µM; 2: ≤ 0.1 µM; 3: ≤ 0.1 µM

Lab note: each molecule below needs its IC50 filled in.
1. c1ccc(CN2Cc3cc4nc5n(c4cc3C2)CCN(C2CCC2)CC5)cc1
2. N#Cc1ccc(NC(=O)c2ccc3c(c2)nc2n3CCN(C3CCC3)CC2)cc1
3. CC(=O)N1CCc2cc3nc4n(c3cc2C1)CCN(C1CCC1)CC4
4. c1cnc(OCc2ccc3c(c2)nc2n3CCN(C3CCC3)CC2)cn1
5. c1cc(-c2ccc3c(c2)nc2n3CCN(C3CCC3)CC2)nc(N2CCCC2)c1
6. c1csc(N2CCN(c3ccc4c(c3)nc3n4CCN(C4CCC4)CC3)CC2)n1

Result block:
["≤ 0.01 µM", "≤ 0.1 µM", "≤ 0.1 µM", "≤ 0.01 µM", "≤ 0.1 µM", "≤ 0.01 µM"]

Lab note: each molecule below needs its IC50 filled in.
1. c1coc(-c2cnc3c(c2)nc2n3CCN(C3CCC3)CC2)c1
2. c1cnc(Cc2ccc3c(c2)nc2n3CCN(C3CCC3)CC2)cn1
3. N#Cc1ccc(N2CCN(c3ccc4c(c3)nc3n4CCN(C4CCC4)CC3)CC2)cc1
4. c1cc2c(cc1N1CCN(C3CCOC3)CC1)nc1n2CCN(C2CCC2)CC1 (racemic)
5. CC(C)N1CCc2nc3cc(-c4ccc(C#N)cc4)ccc3n2CC1
6. COc1ccnc(Nc2ccc3nc4n(c3c2)CCN(C2CCC2)CC4)n1
7. c1ccc2c(c1)ncn2-c1ccc2c(c1)nc1n2CCN(C2CCC2)CC1

Result block:
1. ≤ 1 µM
2. ≤ 0.1 µM
3. ≤ 0.01 µM
4. ≤ 0.01 µM
5. ≤ 0.1 µM
6. ≤ 1 µM
7. ≤ 0.01 µM

Lab note: each molecule below needs its IC50 filled in.
1. c1c2c(cc3c1nc1n3CCN(C3CCC3)CC1)CNC2
2. FC1CCN(Cc2ccc3c(c2)nc2n3CCN(C3CCC3)CC2)CC1
3. O=C(c1cnccn1)N1CCN(c2ccc3c(c2)nc2n3CCN(C3CCC3)CC2)CC1
4. N#Cc1ccc(OCc2ccc3nc4n(c3c2)CCN(C2CCC2)CC4)nc1
5. c1c2c(cc3c1nc1n3CCN(C3CCC3)CC1)CNCC2

Result block:
≤ 0.01 µM
≤ 0.01 µM
≤ 0.1 µM
≤ 1 µM
≤ 0.1 µM

Lab note: each molecule below needs its IC50 filled in.
1. N#Cc1ccc(-c2ccc3c(c2)nc2n3CCN(C3CCC3)CC2)cc1
2. c1cc2c(cc1N1CCN(C3CCCC3)CC1)nc1n2CCN(C2CCC2)CC1
3. CN(C)Cc1ccc2nc3n(c2c1)CCN(C1CCC1)CC3
4. CN(Cc1ccc2c(c1)nc1n2CCN(C2CCC2)CC1)C(=O)OCc1ccccc1

Result block:
≤ 0.01 µM
≤ 0.01 µM
≤ 0.01 µM
≤ 0.1 µM

Lab note: each molecule below needs its IC50 filled in.
1. c1cnc(N2CCc3cc4nc5n(c4cc3C2)CCN(C2CCC2)CC5)cn1
2. CN1CCN(c2cccc(-c3ccc4c(c3)nc3n4CCN(C4CCC4)CC3)n2)CC1
3. c1ccc(CN2CCN(c3ccc4c(c3)nc3n4CCN(C4CCC4)CC3)CC2)cc1
4. CC(=O)Nc1ccc(-c2ccc3nc4n(c3c2)CCN(C2CCC2)CC4)cc1
5. c1nc2cc(-c3ccc4c(c3)nc3n4CCN(C4CCC4)CC3)ccc2[nH]1
6. CNC(=O)c1ccc(Oc2ccc3nc4n(c3c2)CCN(C2CCC2)CC4)nc1

Result block:
1. ≤ 0.01 µM
2. ≤ 0.1 µM
3. ≤ 0.01 µM
4. ≤ 1 µM
5. ≤ 0.1 µM
6. ≥ 1 µM

Lab note: each molecule below needs its IC50 filled in.
1. FC1(F)CCN(c2ccc3c(c2)nc2n3CCN(C3CCC3)CC2)CC1
2. COc1ccnc(OCc2ccc3nc4n(c3c2)CCN(C2CCC2)CC4)n1

Result block:
1: ≤ 0.1 µM; 2: ≤ 1 µM

----------
- assayed system: human histamine H3 receptor (Homo sapiens, UniProt Q9Y5N1)
- measurement notes: H3 GTPγS assay (SPA method), histamine H3 in vitro assay
- condition info: GTPγ[35S] binding to membranes of cells expressing human H3; antagonist mode with R-γ-Me-Histamine at EC80 (30 nM); in one embodiment HCl salts tested; read-out: Potency (functional potency as indicated by IC50)
pIC50: −log10 of the molar value.
Consider the following compounds; for each one, report its pIC50.

>>> experimental_result("c1cc2c(cc1-c1cncc(N3CCCC3)n1)nc1n2CCN(C2CCC2)CC1")
"≥ 7.00"
>>> experimental_result("N#Cc1ccc(COc2ccc3c(c2)nc2n3CCN(C3CCC3)CC2)cc1")
"≥ 8.00"
>>> experimental_result("c1cc2c(cc1-c1cnc(N3CCCC3)cn1)nc1n2CCN(C2CCC2)CC1")
"≥ 7.00"

Lab note: each compound below needs its pIC50 filled in.
1. CN(C)CCc1ccc2c(c1)nc1n2CCN(C2CCC2)CC1
2. N#Cc1ccc(-c2ccc3c(c2)nc2n3CCN(Cc3cnc[nH]3)CC2)cc1
3. c1ncc(CN2CCc3nc4cc(-c5ccc6[nH]ccc6c5)ccc4n3CC2)[nH]1
4. c1ccc2cc(-c3ccc4c(c3)nc3n4CCN(C4CCC4)CC3)ccc2c1

Result block:
["≥ 7.00", "≤ 6.00", "≤ 6.00", "≥ 7.00"]

Lab note: each compound below needs its pIC50 filled in.
1. O=C1c2cc3nc4n(c3cc2C(=O)N1Cc1ccccc1)CCN(C1CCC1)CC4
2. N#Cc1ccc2nc3n(c2c1)CCN(C1CCC1)CC3
3. c1cc2c(cc1N1CCCC1)nc1n2CCN(C2CCC2)CC1
4. CN(C)Cc1ccc2c(c1)nc1n2CCN(C2CCC2)CC1
5. CC(=O)Nc1ccc(-c2ccc3c(c2)nc2n3CCN(C3CCN(C)CC3)CC2)cc1
6. N#Cc1ccc(-c2ccc3nc4n(c3c2)CCN(C2CCC2)CC4)cc1
7. O=c1cccnn1-c1ccc2c(c1)nc1n2CCN(C2CCC2)CC1

Result block:
1: ≤ 6.00; 2: ≤ 6.00; 3: ≥ 7.00; 4: ≥ 7.00; 5: ≥ 6.00; 6: ≥ 6.00; 7: ≥ 6.00

Lab note: each compound below needs its pIC50 filled in.
1. c1cnc(N2CCCC(c3ccc4c(c3)nc3n4CCN(C4CCC4)CC3)C2)cn1 (stereo not drawn)
2. N#Cc1ccc(C(=O)N2CCc3cc4c(cc3C2)nc2n4CCN(C3CCC3)CC2)cc1
3. Cc1ccc2nc(C)n(-c3ccc4c(c3)nc3n4CCN(C4CCC4)CC3)c2c1
4. c1c2c(cc3c1nc1n3CCN(C3CCC3)CC1)CCNC2

Result block:
1. ≥ 8.00
2. ≥ 8.00
3. ≥ 8.00
4. ≥ 7.00
